System: HEK-293T
Test: Cytotoxicity against HEK293T cells assessed as cell viability after 24 hrs by fluorescence assay
Format: cell-based
Conditions: Homo sapiens
pIC50: −log10 of the molar value.
I'd be grateful if you could share measured pIC50 for these entries.

Record request: pIC50 value, item `CC(=O)O[C@@H]1C[C@H]2C(C)(C)C(=O)C=C[C@]2(C)[C@H]2CC[C@]3(C)C(=CC[C@H]3[C@H]3COC(=O)C3)[C@@]21C` < 4.40

Fill in the blank: the reported pIC50 of `O=c1ccc2nccc3c4ccc(O)cc4n1c23` is ____. < 4.40

pIC50 lookup needed for `O=c1ccc2nccc3c4ccc(O[C@@H]5O[C@H](CO)[C@@H](O)[C@H](O)[C@H]5O)cc4n1c23` , thanks. < 4.40

###

Biological target: Glycogen synthase kinase-3 beta (Homo sapiens, UniProt P49841)
Sequence (P49841 whole entry): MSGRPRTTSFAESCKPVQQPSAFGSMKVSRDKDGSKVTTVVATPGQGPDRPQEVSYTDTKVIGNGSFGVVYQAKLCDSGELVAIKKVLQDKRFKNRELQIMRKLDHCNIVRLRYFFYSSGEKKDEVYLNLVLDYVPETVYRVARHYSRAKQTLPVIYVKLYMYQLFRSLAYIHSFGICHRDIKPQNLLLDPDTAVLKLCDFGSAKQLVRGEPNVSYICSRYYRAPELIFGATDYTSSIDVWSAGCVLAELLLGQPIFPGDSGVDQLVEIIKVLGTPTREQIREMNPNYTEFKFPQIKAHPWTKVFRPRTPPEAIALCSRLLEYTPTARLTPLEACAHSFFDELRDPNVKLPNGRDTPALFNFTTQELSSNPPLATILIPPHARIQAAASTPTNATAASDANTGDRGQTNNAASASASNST
Assay: Activation of GSK-3beta in HEK293 cells assessed as suppression of TCF/beta-catenin transcriptional activity after 24 hrs by SuperTOPFlash reporter gene assay
quantity kind: IC50 (µM)
Field format: number, assumed µM, no unit text.

// returns reported IC50 for input `O=c1ccc2nccc3c4ccc(O)cc4n1c23` 6.8

Given the entry `CC(=O)O[C@@H]1C[C@H]2C(C)(C)C(=O)C=C[C@]2(C)[C@H]2CC[C@]3(C)C(=CC[C@H]3[C@H]3COC(=O)C3)[C@@]21C` , report its measured IC50. 3

Tell me the measured IC50 of `O=c1ccc2nccc3c4ccc(O[C@@H]5O[C@H](CO)[C@@H](O)[C@H](O)[C@H]5O)cc4n1c23` , please. 11.6
